Would you kindly list pIC50 for each of these molecules?
molecular target: Mammalian Na^+,K^+-ATPase (Sus scrofa, UniProt P05024); construct: The pig kidney Na^+,K^+-ATPase purification included a mild SDS treatment of isolated microsomes; test: ATP hydrolysis inhibition, Na+,K+-ATPase; conditions: pig Na+,K+-ATPase, racemic compounds, n = 3
Numbers only, as −log10 of the molar value.

MOLECULE	pIC50
FC(F)(F)Oc1ccc2c3c([nH]c2c1)C(NCCOc1ccc(Cl)cc1)CCC3 (stereo not drawn)	5.97
FC(F)(F)Oc1ccc2c3c([nH]c2c1)C(NCc1ccc(Br)cc1)CCC3 (stereo not drawn)	6.42
CN1CCC(NC2CCCc3c2[nH]c2cc(OC(F)(F)F)ccc32)CC1 (stereo not drawn)	3.88
CN(Cc1ccc(-c2ccccc2)cc1)C1CCCc2c1[nH]c1ccc(Cl)cc21 (stereo not drawn)	4.93
FC(F)(F)Oc1ccc2c3c([nH]c2c1)C(NCc1ccc(Cl)cc1)CCC3 (stereo not drawn)	6.14
Clc1ccc2[nH]c3c(c2c1)CCCC3NCc1ccc(-c2ccccc2)cc1 (stereo not drawn)	5.26

Answer for every listed entry: what is its pIC50? The entries follow.
1. FC(F)(F)Oc1ccc2[nH]c3c(c2c1)CCCC3NCc1ccc(-c2ccccn2)cc1 (stereo not drawn)
2. NC1CCCc2c1[nH]c1cc(OC(F)(F)F)ccc21 (stereo not drawn)

1: 5.01; 2: 4.43

----------
molecular target: Saccharomyces cerevisiae Pma1 (Saccharomyces cerevisiae, UniProt P05030); construct: containing the full-length cDNA of the S. cerevisiae plasma membrane H^+-ATPase isoform PMA1; made in house; host or cells: Saccharomyces cerevisiae RS72; assay: ATP hydrolysis inhibition, S. cerevisiae Pma1; type: biochemical; settings: ATP hydrolysis IC50 Saccharomyces cerevisiae Pma1, racemic compounds, n = 3
Sequence (P05030 whole entry, canonical isoform): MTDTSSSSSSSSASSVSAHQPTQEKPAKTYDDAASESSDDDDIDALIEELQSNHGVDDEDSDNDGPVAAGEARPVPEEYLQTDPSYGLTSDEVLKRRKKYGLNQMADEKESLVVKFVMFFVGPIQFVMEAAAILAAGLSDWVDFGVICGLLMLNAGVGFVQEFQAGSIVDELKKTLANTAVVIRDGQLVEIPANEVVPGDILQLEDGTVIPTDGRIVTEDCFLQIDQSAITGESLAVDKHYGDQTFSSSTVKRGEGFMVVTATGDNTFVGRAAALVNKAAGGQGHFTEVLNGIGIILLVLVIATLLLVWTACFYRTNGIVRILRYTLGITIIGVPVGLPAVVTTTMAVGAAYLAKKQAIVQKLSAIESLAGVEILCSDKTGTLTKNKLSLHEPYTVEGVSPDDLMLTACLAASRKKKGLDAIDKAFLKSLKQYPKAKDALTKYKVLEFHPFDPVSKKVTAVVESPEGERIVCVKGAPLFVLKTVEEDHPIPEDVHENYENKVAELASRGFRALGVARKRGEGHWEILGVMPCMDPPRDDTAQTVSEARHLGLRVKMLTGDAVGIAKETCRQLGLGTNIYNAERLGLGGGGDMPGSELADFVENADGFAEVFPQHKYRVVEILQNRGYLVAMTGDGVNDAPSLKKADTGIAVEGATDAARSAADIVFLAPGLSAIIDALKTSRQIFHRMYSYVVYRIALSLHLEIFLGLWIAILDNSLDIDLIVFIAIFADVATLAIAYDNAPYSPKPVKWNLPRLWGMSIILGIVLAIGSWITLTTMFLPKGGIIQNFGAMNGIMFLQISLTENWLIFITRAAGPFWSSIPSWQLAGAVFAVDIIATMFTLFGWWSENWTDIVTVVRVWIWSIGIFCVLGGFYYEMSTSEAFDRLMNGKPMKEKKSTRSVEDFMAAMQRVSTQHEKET
OBSERVATION TYPE: pIC50
Give bare numbers, as −log10 of the molar value.

Record excerpt, results attached:
MOLECULE	pIC50
FC(F)(F)Oc1ccc2c3c([nH]c2c1)C(NCCOc1ccc(Cl)cc1)CCC3 (centres unmarked)	5.45
FC(F)(F)Oc1ccc2c3c([nH]c2c1)C(NCc1ccc(Br)cc1)CCC3 (centres unmarked)	5.61
FC(F)(F)Oc1ccc2[nH]c3c(c2c1)CCCC3NCc1ccc(-c2ccccn2)cc1 (centres unmarked)	5.33
NC1CCCc2c1[nH]c1cc(OC(F)(F)F)ccc21 (centres unmarked)	4.12
FC(F)(F)Oc1ccc2c3c([nH]c2c1)C(NCc1ccc(Cl)cc1)CCC3 (centres unmarked)	5.55

// fetch Saccharomyces cerevisiae Pma1 (Saccharomyces cerevisiae, UniProt P05030) pIC50 for CN1CCC(NC2CCCc3c2[nH]c2cc(OC(F)(F)F)ccc32)CC1 (centres unmarked)
4.07

----------
molecular target: Candida albicans Pma1 (Candida albicans); construct: endogenous in cells; assay: ATP hydrolysis inhibition, C. albicans Pma1; details: racemic compounds, n = 3
Sequence (P28877 whole entry): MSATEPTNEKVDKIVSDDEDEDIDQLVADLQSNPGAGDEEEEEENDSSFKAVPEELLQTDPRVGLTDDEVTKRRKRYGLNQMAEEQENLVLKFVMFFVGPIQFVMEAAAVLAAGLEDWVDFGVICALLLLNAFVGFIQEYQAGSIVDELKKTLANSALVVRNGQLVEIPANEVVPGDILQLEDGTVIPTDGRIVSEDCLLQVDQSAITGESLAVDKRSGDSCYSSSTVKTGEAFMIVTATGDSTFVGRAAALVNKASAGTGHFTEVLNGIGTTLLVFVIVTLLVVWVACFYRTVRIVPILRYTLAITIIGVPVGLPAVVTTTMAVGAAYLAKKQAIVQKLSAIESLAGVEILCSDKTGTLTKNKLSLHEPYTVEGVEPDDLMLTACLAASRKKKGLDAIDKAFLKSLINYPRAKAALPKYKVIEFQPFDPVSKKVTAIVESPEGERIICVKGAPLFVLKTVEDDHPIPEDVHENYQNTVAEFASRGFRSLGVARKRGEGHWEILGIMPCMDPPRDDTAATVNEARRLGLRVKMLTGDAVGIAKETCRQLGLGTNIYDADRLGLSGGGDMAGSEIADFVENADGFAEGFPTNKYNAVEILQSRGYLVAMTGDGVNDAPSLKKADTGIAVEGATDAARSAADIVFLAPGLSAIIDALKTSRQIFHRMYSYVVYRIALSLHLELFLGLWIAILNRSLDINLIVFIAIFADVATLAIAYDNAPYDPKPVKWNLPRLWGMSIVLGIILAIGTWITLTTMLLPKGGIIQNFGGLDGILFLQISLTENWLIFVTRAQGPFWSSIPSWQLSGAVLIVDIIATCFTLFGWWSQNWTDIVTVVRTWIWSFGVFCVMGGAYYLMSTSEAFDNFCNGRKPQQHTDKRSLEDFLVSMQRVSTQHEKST
pIC50: −log10 of the molar value.
Please mark 1 if the recorded pIC50 is equal to or greater than 5, and 0 if it falls below.

Example cases with answers are listed next.
MOLECULE	TESTED ON	DISCRETE LABEL
CN(Cc1ccc(-c2ccccc2)cc1)C1CCCc2c1[nH]c1ccc(Cl)cc21 (stereo not drawn)	Candida albicans Pma1 (Candida albicans)	0
FC(F)(F)Oc1ccc2c3c([nH]c2c1)C(NCCOc1ccc(Cl)cc1)CCC3 (stereo not drawn)	Candida albicans Pma1 (Candida albicans)	1
NC1CCCc2c1[nH]c1cc(OC(F)(F)F)ccc21 (stereo not drawn)	Candida albicans Pma1 (Candida albicans)	0

Please check the record FC(F)(F)Oc1ccc2c3c([nH]c2c1)C(NCc1ccc(Br)cc1)CCC3 (stereo not drawn) and state if its pIC50 is at or above 5.
1

Please check the record Cn1c2c(c3cc(Cl)ccc31)CCCC2NCc1ccc(-c2ccccc2)cc1 (stereo not drawn) and state if its pIC50 is at or above 5.
0

Please check the record FC(F)(F)Oc1ccc2c3c([nH]c2c1)C(NCc1ccc(Cl)cc1)CCC3 (stereo not drawn) and state if its pIC50 is at or above 5.
1

Please check the record CN1CCC(NC2CCCc3c2[nH]c2cc(OC(F)(F)F)ccc32)CC1 (stereo not drawn) and state if its pIC50 is at or above 5.
0

Please check the record FC(F)(F)Oc1ccc2[nH]c3c(c2c1)CCCC3NCc1ccc(-c2ccccn2)cc1 (stereo not drawn) and state if its pIC50 is at or above 5.
1

----------
biological target: Mammalian SERCA (Oryctolagus cuniculus); construct: Ca^2+ ATPase was provided in SR membranes purified by extraction with a low concentration of deoxycholate (DOC); from tissue; host or cells: sarcoplasmic reticulum membranes (rabbit); experiment: ATP hydrolysis inhibition, SERCA; type: biochemical; details: rabbit SERCA, racemic compounds, n = 3
Sequence (P04191 1-994 isoform P04191-2): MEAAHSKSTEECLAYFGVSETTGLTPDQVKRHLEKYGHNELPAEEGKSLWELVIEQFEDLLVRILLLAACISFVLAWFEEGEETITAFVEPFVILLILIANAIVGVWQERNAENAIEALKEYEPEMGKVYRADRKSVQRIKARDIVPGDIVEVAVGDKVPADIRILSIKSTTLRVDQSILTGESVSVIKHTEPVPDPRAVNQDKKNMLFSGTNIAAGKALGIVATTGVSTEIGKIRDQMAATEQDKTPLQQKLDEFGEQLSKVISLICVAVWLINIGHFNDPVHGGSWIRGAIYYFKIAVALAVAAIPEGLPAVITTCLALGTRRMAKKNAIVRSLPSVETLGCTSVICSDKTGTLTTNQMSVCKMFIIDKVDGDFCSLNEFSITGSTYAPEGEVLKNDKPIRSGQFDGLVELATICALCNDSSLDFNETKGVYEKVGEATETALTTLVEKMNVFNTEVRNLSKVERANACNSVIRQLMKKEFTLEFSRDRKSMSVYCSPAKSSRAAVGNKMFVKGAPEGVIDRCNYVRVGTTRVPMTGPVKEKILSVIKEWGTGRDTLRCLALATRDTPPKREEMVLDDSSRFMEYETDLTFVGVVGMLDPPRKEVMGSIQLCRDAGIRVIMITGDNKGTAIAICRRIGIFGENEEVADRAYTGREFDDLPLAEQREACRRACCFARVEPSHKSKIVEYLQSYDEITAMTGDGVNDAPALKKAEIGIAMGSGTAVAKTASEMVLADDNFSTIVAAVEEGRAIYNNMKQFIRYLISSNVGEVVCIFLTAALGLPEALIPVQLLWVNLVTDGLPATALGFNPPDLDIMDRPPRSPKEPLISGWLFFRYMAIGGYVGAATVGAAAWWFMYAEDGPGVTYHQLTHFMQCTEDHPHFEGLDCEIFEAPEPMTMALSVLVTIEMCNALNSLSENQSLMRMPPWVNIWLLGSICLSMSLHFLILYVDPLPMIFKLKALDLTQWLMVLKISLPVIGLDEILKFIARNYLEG
OBSERVATION TYPE: pIC50
Answers are plain numbers, as −log10 of the molar value.

Answer for every listed entry: what is its pIC50? The entries follow.
1. NC1CCCc2c1[nH]c1cc(OC(F)(F)F)ccc21 (stereo not drawn) [Compound 4]
2. Clc1ccc2[nH]c3c(c2c1)CCCC3NCc1ccc(-c2ccccc2)cc1 (stereo not drawn) [Compound 10]
3. FC(F)(F)Oc1ccc2c3c([nH]c2c1)C(NCc1ccc(Cl)cc1)CCC3 (stereo not drawn) [Compound 6]
4. FC(F)(F)Oc1ccc2c3c([nH]c2c1)C(NCCOc1ccc(Cl)cc1)CCC3 (stereo not drawn) [Compound 8]
5. FC(F)(F)Oc1ccc2[nH]c3c(c2c1)CCCC3NCc1ccc(-c2ccccn2)cc1 (stereo not drawn) [Compound 9]
6. CN1CCC(NC2CCCc3c2[nH]c2cc(OC(F)(F)F)ccc32)CC1 (stereo not drawn) [Compound 5]
7. FC(F)(F)Oc1ccc2c3c([nH]c2c1)C(NCc1ccc(Br)cc1)CCC3 (stereo not drawn) [Compound 7]

1. 5.81
2. 5.26
3. 7.05
4. 6.59
5. 5.49
6. 4.21
7. 6.96

----------
biological target: Saccharomyces cerevisiae Pma1 (Saccharomyces cerevisiae, UniProt P05030); construct: containing the full-length cDNA of the S. cerevisiae plasma membrane H^+-ATPase isoform PMA1; made in house; host or cells: Saccharomyces cerevisiae RS72; assay: ATP hydrolysis inhibition, S. cerevisiae Pma1; type: biochemical; details: Pma1 IC50, Pma1 species not specified
Would you kindly list IC50 for each of these compounds?

Answer for every listed entry: what is its IC50? The entries follow.
1. FC(F)(F)Oc1ccc2[nH]c3c(c2c1)CCCC3NCc1ccc(-c2ccccn2)cc1 (centres unmarked)
2. Clc1ccc2[nH]c3c(c2c1)CCCC3NCc1ccc(-c2ccccc2)cc1 (centres unmarked)

["5 to 7 µM", "5 to 7 µM"]
